tested on: NCI-H522; experiment: NCI tumour cell line growth inhibition, 48 h
Calls of active or inactive are those of the source. Rule as the data show it: active = GI50 up to about 1.1 µM and inactive = higher.

compound	target	GI50
S=C(S)N1CCN(c2ccc(Cl)c(Cl)c2)CC1	NCI-H522	21.6 µM (inactive)
CCOC(=O)N(c1ccccc1)N(CC)C(=O)/C(C)=N/Nc1ccc([N+](=O)[O-])cc1	NCI-H522	15.3 µM (inactive)
CC(C)=CCc1cc(C2COc3cc4c(c(O)c3C2=O)C=CC(C)(C)O4)c(O)cc1O (stereo not drawn)	NCI-H522	11.6 µM (inactive)
O=C1C(c2ccccc2)=C(c2ccccc2)C(c2ccccc2)/C1=C1\C(=O)C(c2ccccc2)=C(c2ccccc2)C1c1ccccc1 (stereo not drawn)	NCI-H522	> 100 µM (inactive)
Nc1nn2c(C(Br)Br)cc(C(Br)Br)nc2c1[N+](=O)[O-]	NCI-H522	0.37 µM (active)
Cc1c(O)c(C)c2c(C)cn(C(=O)C(C)(C)C)c2c1C	NCI-H522	23.7 µM (inactive)
COc1ccc(N2C(=O)/C(=C(\C)c3cc4ccccc4oc3=O)N=C2c2cc([N+](=O)[O-])ccc2Cl)cc1	NCI-H522	11.5 µM (inactive)
c1ccc(/N=C2\SC(=NNc3ccccc3)S\C2=N/c2ccccc2)cc1	NCI-H522	15.3 µM (inactive)
C[C@]12CC/C(=N\O)C=C1CC[C@@H]1[C@@H]2CC[C@]2(C)C(=N/O)/C(=C/c3ccncc3)C[C@@H]12	NCI-H522	27.2 µM (inactive)
COc1ccc(C2(O)C(S(=O)(=O)c3ccc(C)cc3)=Cc3ccc(OC)cc32)cc1 (stereo not drawn)	NCI-H522	39.9 µM (inactive)
CCC1(CN(C)C)CC/C(=C\c2ccc(OC)cc2)C1=O (stereo not drawn)	NCI-H522	31.5 µM (inactive)
Nc1ccc(/N=N/c2ccc(-c3ccc(/N=N/c4c(S(=O)(=O)O)cc5cc(S(=O)(=O)O)c(/N=N/c6ccc([N+](=O)[O-])cc6)c(N)c5c4O)cc3)cc2)c2cc(S(=O)(=O)O)ccc12	NCI-H522	> 100 µM (inactive)
CCOC(=O)c1cc([N+](=O)[O-])cc([N+](=O)[O-])c1Sc1[nH]cnc2ncnc1-2	NCI-H522	1.55 µM (inactive)
COc1ccc(CCc2cc(OC)c(OC)c(OC)c2)cc1	NCI-H522	0.0195 µM (active)
O=C(Nc1ccc([As](=O)(O)O)cc1)Nc1cccc(Cl)c1Cl	NCI-H522	> 100 µM (inactive)
CC(=O)Nc1ccc(Nc2cc(=O)n(C)c(=O)[nH]2)cc1	NCI-H522	> 100 µM (inactive)
CCOC(=O)C1=C(C)N(NC(=O)Nc2ccccc2)C(=O)C1=P(c1ccccc1)(c1ccccc1)c1ccccc1	NCI-H522	19.4 µM (inactive)
O=c1oc2ccccc2cc1-c1nnc(-c2ccccc2)s1	NCI-H522	13.7 µM (inactive)
O=C1NC(N2CCCC(CO)C2)=N/C1=C\c1cccs1 (stereo not drawn)	NCI-H522	> 100 µM (inactive)
COC(=O)C(CCC1(C)OCCO1)=[N+]=[N-]	NCI-H522	> 100 µM (inactive)
COc1ccc(NC(=O)CC(=O)n2nc(C)c(/N=N/c3ccc(C)c(C)c3)c2C)cc1	NCI-H522	> 100 µM (inactive)
C1CSC(=[N+]2CC[N+](=C3SCCS3)CC2)S1	NCI-H522	> 100 µM (inactive)
O=C1C=C(c2c(O)ccc3ccccc23)c2ccccc2C1=O	NCI-H522	1.61 µM (inactive)
C[C@]12CCC(=O)C(O)=C1CCC2=O	NCI-H522	> 100 µM (inactive)
COc1cc(S(=O)(=O)Nc2ccc(-c3csc(N4C(=O)C(C)SC4c4ccccc4O)n3)cc2)ccc1Cl (stereo not drawn)	NCI-H522	18.3 µM (inactive)
CCOC(=O)c1ccc(N(CCOS(C)(=O)=O)CCOS(C)(=O)=O)cc1	NCI-H522	12.9 µM (inactive)
C=C1C(=O)OC2/C=C(\COC(C)=O)CCC(OC(C)=O)C3=CC(OC3=O)C12 (stereo not drawn)	NCI-H522	0.526 µM (active)
NC(=O)NC(=O)Nc1ccc(Br)cc1	NCI-H522	> 25.9 µM (inactive)
O=C(Nc1nccs1)NS(=O)(=O)n1cnc2ccccc21	NCI-H522	> 100 µM (inactive)
CC1CCCN(CC(O)CN2CCCc3ccccc32)C1 (stereo not drawn)	NCI-H522	64.4 µM (inactive)
COC(=O)c1ccccc1C1CN=NC12Cc1c(ccc3c1CCC3)C2=O (stereo not drawn)	NCI-H522	0.635 µM (active)
CN(C)CCCNc1ncnc2[nH]cnc12	NCI-H522	> 100 µM (inactive)
NC12CC3C4CC5(N)CC3C(C1)C(C5)C4C2	NCI-H522	> 100 µM (inactive)
O=[N+]([O-])c1ccc2[nH]c(-c3ccc(Cl)cc3)nc2c1	NCI-H522	12.6 µM (inactive)
CC(=O)Nc1ccc(SC#N)c2c(NC(C)=O)cccc12	NCI-H522	> 47.6 µM (inactive)
CN(C)C=C1C(Cl)=C(C=O)CC(C=O)=C1Cl	NCI-H522	1.86 µM (inactive)
Cc1ccc(CC2(C(=O)O)Cc3ccc(C)cc3C2)cc1 (stereo not drawn)	NCI-H522	> 100 µM (inactive)
Cn1cc2ccccc2c1-c1nc(F)nc(F)n1	NCI-H522	> 100 µM (inactive)
Nc1nccc2c1ncn2C1C=C(CO)C(O)C1O (stereo not drawn)	NCI-H522	> 100 µM (inactive)
CCOC(=O)C1C(c2ccc(OC)cc2)c2c(n[nH]c2O)CC1(O)OCC (stereo not drawn)	NCI-H522	> 100 µM (inactive)
CCN(CC)COC(=S)S	NCI-H522	3.61 µM (inactive)
O=C(NC1=C(Cl)C(=O)c2ccccc2C1=O)c1ccc(F)cc1	NCI-H522	0.456 µM (active)
O=C(OC1C#CCSCC#C/C=C\1)c1cnc2ccccc2n1 (stereo not drawn)	NCI-H522	> 100 µM (inactive)
